Assay protocol: Clearance assay: mouse intravenous (IV) clearance
Format: in vivo
Test settings: female BALB/c mice, single IV dose of 1 mg/kg; clearance as % of mouse liver blood flow
Quantity: IV Mouse CL, % of liver blood flow (%)
Reply with just the number (in %).

CC(C)(C#N)CNC1CCN(C(=O)Cn2cc(NC(=O)c3cnn4cccnc34)c(-c3cc(Cl)ccc3OC(F)F)n2)CC1; 80

Then there is this compound:
Incoming: So what does the record say about IV Mouse CL, % of liver blood flow for `CN(C)CC#Cc1nc(-c2cc(Cl)ccc2OC(F)F)c(NC(=O)c2cnn3cccnc23)s1` ?
Outgoing: 71

====

Tested on: JAK1-dependent STAT6 phosphorylation downstream of IL-13 stimulation in TF-1 human erythroleukemia cells
Assay protocol: JAK1 pathway assay in TF-1 cells (IL-13-pSTAT6, MSD)
Assay type: cell-based
Test settings: Homo sapiens, TF-1, TF-1 cells, read-out: IL13-pSTAT6 EC50_TF-1
Procedure: JAK1 Pathway Assay in Cell Lines was Carried Out as Follows: Inhibitor potency (EC50) was determined in cell-based assays designed to measure JAK1 dependent STAT phosphorylation. […] Test compounds were serially diluted 1:2 in DMSO and then diluted 1:50 in medium just before use. […] Then, cells were stimulated with human recombinant cytokine at their respective EC90 concentrations, as previously determined for each individual lot. […]
# if measured EC50 < 10 nM: label 1  # else: label 0

These solved cases illustrate the format of a correct answer.
COCCCN1C[C@@H]2CN(C(=O)Cn3cc(NC(=O)c4cnn5cccnc45)c(-c4cc(Cl)ccc4OC(F)F)n3)C[C@@H]2C1; label 1
CN(CCCc1ccccc1)C1CCN(C(=O)Cn2cc(NC(=O)c3cnn4cccnc34)c(-c3cc(Cl)ccc3OC(F)F)n2)CC1; label 1
O=C(Nc1cn(CC(=O)N2CC[C@H]3CNC[C@H]3C2)nc1-c1cc(Cl)ccc1OC(F)F)c1cnn2cccnc12; label 0
CN(CC(F)(F)F)C1CCN(C(=O)Cn2cc(NC(=O)c3cnn4cccnc34)c(-c3cc(Cl)ccc3OC(F)F)n2)CC1; label 1
COCCN(C)C1CCN(C(=O)Cn2cc(NC(=O)c3cnn4cccnc34)c(-c3cc(Cl)ccc3OC(F)F)n2)CC1; label 0

Incoming: Given the entry `CN(CCOc1ccc(Cl)cc1)C1CCN(C(=O)Cn2cc(NC(=O)c3cnn4cccnc34)c(-c3cc(Cl)ccc3OC(F)F)n2)CC1` , would its reported EC50 be below 10 nM?
Outgoing: label 0

Incoming: Thanks! And `NCCn1cc(NC(=O)c2c(N)nn3cccnc23)c(-c2cc(Cl)ccc2OC(F)F)n1` ?
Outgoing: label 1

Incoming: And the next one, `NC1CCN(C(=O)Cn2cc(NC(=O)c3cnn4cccnc34)c(-c3cc(Cl)ccc3OC(F)F)n2)CC1` ?
Outgoing: label 0

Incoming: And what about the compound `CN1C[C@@H]2CN(C(=O)Cn3cc(NC(=O)c4cnn5cccnc45)c(-c4cc(Cl)ccc4OC(F)F)n3)C[C@@H]2C1` ?
Outgoing: label 0

Incoming: Try `CC1(CN(CCC(F)(F)F)C2CCN(C(=O)Cn3cc(NC(=O)c4cnn5cccnc45)c(-c4cc(Cl)ccc4OC(F)F)n3)CC2)COC1` next.
Outgoing: label 1
